test system: Trichopyton mentagrophytes (ATCC18748); test: Measurement of antimycotic activity (Alamar Blue growth inhibition of dermatophytes); type: cell-based; conditions: minimum concentration at which the growth inhibition rate is 80% or more; read-out: MIC80 Concentration
endpoint.name: MIC80 (µg/mL)

[1] OC(c1ccccc1)(c1ccccc1)c1ccccc1
[2] Cc1ccc(C(c2ccc(C)cc2)n2ccnc2)cc1
[3] c1ccc(C(c2ccccc2)(c2ccccc2)n2ccnc2)cc1
[4] c1ccc(C(c2ccccc2)(c2ccncc2)n2ccnc2)cc1 [Compound 40, 1-[(diphenylpyridyl)methyl]imidazole]
List the items above again, this time ordered by increasing MIC80. To answer, write out the labels according to the requested order.
3, 2, 4, 1
(3: 0.625 µg/mL, 2: 5 µg/mL, 4: 10 µg/mL, 1: 100 µg/mL)
